- ASSAYED_SYSTEM: Glucose transporter (Leishmania mexicana)
- ASSAY_COMMENT: ST_JUDE_LEISH: Cytotoxicity at 2uM final concentration against transgenic Leishmania Mexicana promastigotes LmGT2 that are glucose transport deficient and complemented with the L. Mexicana glucose transporter 2. Activity is measured by DNA content using SYBR green in vitro
- Format: functional
Reported inhibition values follow for various compounds
The reply should be a number in %, with the unit left off.

In the examples that follow, each entry is paired with its recorded inhibition.
{"COMPOUND": "c1cc(CN2CCCCC2)cc(-c2ccc(-c3nc4ccccc4[nH]3)cc2)c1", "VALUE": -1.06}
{"COMPOUND": "Cc1cccc2nc(-c3cccc(-c4cccc(CNCCN5CCNCC5)c4)c3)[nH]c12", "VALUE": 0.48}
{"COMPOUND": "Nc1ccc(-c2ccc(NC(=O)Nc3cc(C(F)(F)F)ccc3F)cc2)cn1", "VALUE": 2.2}
{"COMPOUND": "CC(C)Sc1nc2c(c(=O)n1CCc1ccccc1)C1(CCCCC1)Cc1ccccc1-2", "VALUE": -0.83}
{"COMPOUND": "Cc1cccc2nc(-c3cccc(-c4ccc(NC(=O)NCc5ccccc5)cc4)c3)[nH]c12", "VALUE": 1.31}
{"COMPOUND": "CCCCCCN1CCC(NCc2ccc(OCCN3CCCC3)cc2)CC1", "VALUE": -0.15}
{"COMPOUND": "CC(=O)Nc1cccc(C(=O)Nc2ccc(-c3ccc(-c4nc5cccc(C)c5[nH]4)s3)cc2)c1", "VALUE": 0.04}
{"COMPOUND": "CCOc1ccc2ccccc2c1CNCCCCCCNCc1c(OCC)ccc2ccccc12", "VALUE": 4.92}

Query compound follows.
INPUT: Tell me reported inhibition for c1ccc2c3c([nH]c2c1)C(c1ccc2c(c1)CCO2)N(c1ncnc(N2CCN(CCCN4CCOCC4)CC2)n1)CC3 (centres undefined) , tested with Glucose transporter (Leishmania mexicana).
OUTPUT: 1.89

---

Listing of recorded inhibition by entry.
- ASSAYED_SYSTEM: Glucose transporter (Leishmania mexicana) (UniProt O61059)
- ASSAY_COMMENT: ST_JUDE_LEISH: Cytotoxicity at 2uM final concentration against transgenic Leishmania Mexicana promastigotes LmGT2 that are glucose transport deficient and complemented with the L. Mexicana glucose transporter 2. Activity is measured by DNA content using SYBR green in vitro
- Type: functional
Express it in %; write the number only.

{"COMPOUND": "CC(C)CNCc1cccc(-c2cccc(CNc3ccc4ncccc4c3)c2)c1", "inhibition / %": 2.08}
{"COMPOUND": "COc1ccc(O)c(-c2sc(N=C(N)N)nc2-c2ccccc2)c1", "inhibition / %": 3.42}
{"COMPOUND": "Cc1cc(C(=O)CN2C(=O)NC3(CCCc4ccccc43)C2=O)c(C)n1Cc1ccc(F)cc1 (centres undefined)", "inhibition / %": 5.14}
{"COMPOUND": "CN1CCN(c2ccc3[nH]c(-c4ccc(Cc5cc(Cl)ccc5OCc5ccccc5)o4)nc3c2)CC1", "inhibition / %": 2.2}

INPUT: Fill blank: measured inhibition of the compound COc1cccc2c1CCN(CCN1CCC(CNC(=O)c3ccc(-c4ccc(C#N)cc4)cc3)CC1)C2 is ____.
OUTPUT: 1.38

---

- ASSAYED_SYSTEM: Solute carrier family 2, facilitated glucose transporter member 1 (Homo sapiens) (UniProt P11166)
- Sequence (P11166 whole entry): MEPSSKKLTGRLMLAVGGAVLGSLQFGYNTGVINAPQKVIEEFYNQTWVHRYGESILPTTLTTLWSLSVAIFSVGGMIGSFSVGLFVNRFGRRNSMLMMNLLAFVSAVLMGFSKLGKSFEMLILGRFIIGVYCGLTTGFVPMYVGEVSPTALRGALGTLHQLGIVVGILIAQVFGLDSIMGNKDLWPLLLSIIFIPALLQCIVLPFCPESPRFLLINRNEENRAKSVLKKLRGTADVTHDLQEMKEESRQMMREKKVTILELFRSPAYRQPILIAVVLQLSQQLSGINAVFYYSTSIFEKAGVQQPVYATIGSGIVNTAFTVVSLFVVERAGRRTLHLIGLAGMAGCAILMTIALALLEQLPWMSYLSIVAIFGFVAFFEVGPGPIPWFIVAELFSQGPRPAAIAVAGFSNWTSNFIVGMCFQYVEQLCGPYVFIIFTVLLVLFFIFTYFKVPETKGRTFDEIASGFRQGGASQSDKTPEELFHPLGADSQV
- ASSAY_COMMENT: ST_JUDE_LEISH: Cytotoxicity at 2uM final concentration against transgenic Leishmania Mexicana promastigotes LmGLUT1 that are glucose transport deficient and complemented with the human glucose transporter GLUT1. Activity is measured by DNA content using SYBR green in vitro
- Type: functional
Measured inhibition, listed per entry.
The answer is to be given in %; state only the numeric part.

Field: example entries. Status: answers known.
{"COMPOUND": "CC(C)C1=C[C@H]2C[C@]3(C4OCCO4)[C@@H]4CC[C@@H](C)[C@H]4C[C@@]2(C(=O)OCC2COCO2)[C@]13C(=O)OC(c1ccccc1)c1ccccc1 (stereo not given in full)", "inhibition, %": -1.18}
{"COMPOUND": "CCCCCCCCc1c(C)nc(C)c(Br)c1O", "inhibition, %": 0.75}
{"COMPOUND": "COc1ccccc1-c1cccc(CNC2CCN(CC3Cn4c(=O)ccc5ccc(F)c3c54)CC2)c1 (stereo not given)", "inhibition, %": 15}
{"COMPOUND": "CC(=O)Nc1nc(C)c(-c2csc(Nc3ccc(Cl)cc3)n2)s1", "inhibition, %": -0.76}

We now examine a further compound.
INPUT: Would you mind telling me what inhibition value was observed for COc1cc2c(Nc3ccc(NC(=O)c4ccccc4)cc3)ncnc2cc1OCCCN1CCOCC1 ?
OUTPUT: 3.25
